# Species: Rattus norvegicus
# method: Open TG-GATES - Regimen: Daily Repeat
# Assay type: toxicity, organism-based, Sprague-Dawley
# Set-up: regimen Daily Repeat, gender Male, age 6 weeks
# conditionSummary: in vivo, po, 300 mg/kg, 72 h, tissue Blood, route gavage, dose level Middle, time 3 day
outcomeMeasure: Hb (g/dL)

{"structureAsSmiles": "Cc1nnc2n1-c1ccc(Cl)cc1C(c1ccccc1Cl)=NC2", "value": 13.8}
{"structureAsSmiles": "CN/C(=N/CCSCc1nc[nH]c1C)NC#N", "value": 13.1}
{"structureAsSmiles": "COC(=O)C1=C(C)NC(C)=C(C(=O)OC)C1c1ccccc1[N+](=O)[O-]", "value": 13.5}
{"structureAsSmiles": "CNC(=C[N+](=O)[O-])NCCSCc1ccc(CN(C)C)o1", "value": 13.5}
{"structureAsSmiles": "O=C(OC[C@H]1O[C@@H](OC(=O)c2cc(O)c(O)c(OC(=O)c3cc(O)c(O)c(O)c3)c2)[C@H](OC(=O)c2cc(O)c(O)c(OC(=O)c3cc(O)c(O)c(O)c3)c2)[C@@H](OC(=O)c2cc(O)c(O)c(OC(=O)c3cc(O)c(O)c(O)c3)c2)[C@@H]1OC(=O)c1cc(O)c(O)c(OC(=O)c2cc(O)c(O)c(O)c2)c1)c1cc(O)c(O)c(OC(=O)c2cc(O)c(O)c(O)c2)c1", "value": 13.1}
{"structureAsSmiles": "CCOc1ccc(NC(C)=O)cc1", "value": 13.5}

* * *

# Species: Rattus norvegicus
# method: Open TG-GATES - Regimen: Single
# Assay type: toxicity, organism-based, Sprague-Dawley
# Parameters: regimen Single, gender Male, age 6 weeks
# conditionSummary: in vivo, po, 300 mg/kg, 9 h, tissue Kidney, route gavage, dose level Middle
outcomeMeasure: KIDNEY_R

{"compound": "CN/C(=N/CCSCc1nc[nH]c1C)NC#N [CIMETIDINE]", "value": "1 g"}
{"compound": "COC(=O)C1=C(C)NC(C)=C(C(=O)OC)C1c1ccccc1[N+](=O)[O-] [NIFEDIPINE]", "value": "0.9 g"}
{"compound": "Cc1nnc2n1-c1ccc(Cl)cc1C(c1ccccc1Cl)=NC2 [TRIAZOLAM]", "value": "0.8 g"}
{"compound": "CNC(=C[N+](=O)[O-])NCCSCc1ccc(CN(C)C)o1 [RANITIDINE]", "value": "1 g"}
{"compound": "O=C(OC[C@H]1O[C@@H](OC(=O)c2cc(O)c(O)c(OC(=O)c3cc(O)c(O)c(O)c3)c2)[C@H](OC(=O)c2cc(O)c(O)c(OC(=O)c3cc(O)c(O)c(O)c3)c2)[C@@H](OC(=O)c2cc(O)c(O)c(OC(=O)c3cc(O)c(O)c(O)c3)c2)[C@@H]1OC(=O)c1cc(O)c(O)c(OC(=O)c2cc(O)c(O)c(O)c2)c1)c1cc(O)c(O)c(OC(=O)c2cc(O)c(O)c(O)c2)c1 [TANNIC ACID]", "value": "0.8 g"}

* * *

# Organism: Rattus norvegicus
# method: Open TG-GATES - Regimen: Single
# Type: toxicity, organism-based, Sprague-Dawley
# Set-up: regimen Single, gender Male, age 6 weeks
# conditionSummary: in vivo, po, 1000 mg/kg, 9 h, tissue Blood, route gavage, dose level High

{"compound": "CNC(=C[N+](=O)[O-])NCCSCc1ccc(CN(C)C)o1 [RANITIDINE]", "unitsOfMeasure": "%", "Neu": 24.2}
{"compound": "CN/C(=N/CCSCc1nc[nH]c1C)NC#N [CIMETIDINE]", "unitsOfMeasure": "%", "Neu": 15.6}
{"compound": "Cc1nnc2n1-c1ccc(Cl)cc1C(c1ccccc1Cl)=NC2 [TRIAZOLAM]", "unitsOfMeasure": "%", "Neu": 21.6}
{"compound": "O=C(OC[C@H]1O[C@@H](OC(=O)c2cc(O)c(O)c(OC(=O)c3cc(O)c(O)c(O)c3)c2)[C@H](OC(=O)c2cc(O)c(O)c(OC(=O)c3cc(O)c(O)c(O)c3)c2)[C@@H](OC(=O)c2cc(O)c(O)c(OC(=O)c3cc(O)c(O)c(O)c3)c2)[C@@H]1OC(=O)c1cc(O)c(O)c(OC(=O)c2cc(O)c(O)c(O)c2)c1)c1cc(O)c(O)c(OC(=O)c2cc(O)c(O)c(O)c2)c1 [TANNIC ACID]", "unitsOfMeasure": "%", "Neu": 18.4}
{"compound": "COC(=O)C1=C(C)NC(C)=C(C(=O)OC)C1c1ccccc1[N+](=O)[O-] [NIFEDIPINE]", "unitsOfMeasure": "%", "Neu": 19.2}
